run.description: Microsomal stability assay, human
Type: in vitro ADME
experimental.context: metabolic stability, human liver microsomes 0.5 mg/mL, substrate 3 uM
Output Criterion met for records whose MS Human THalf is lower than 100 min, Criterion not met for records at or above 100 min.

Problem: Hello, is MS Human THalf of the following compound strictly smaller than 100 min? O=C1c2cc(-c3ccc(OC(F)(F)F)cc3)ccc2OCN1Cc1ccccn1
Solution: Criterion not met

Problem: Is the reported MS Human THalf for O=c1c2cc(-c3ccc(OC(F)(F)F)cc3)ccc2cnn1CCOc1cnccn1 strictly below 100 min?
Solution: Criterion met

Problem: Given the entry CCc1nccn1CC1(Cn2nnc3ccc(-c4ccc(OC(F)(F)F)cc4)cc3c2=O)CC1 , would its reported MS Human THalf be below 100 min?
Solution: Criterion met

Problem: Does the reported MS Human THalf of the following compound sit strictly below 100 min? Cc1noc(Cn2nnc3ccc(-c4ccc(C5CC5)cc4)cc3c2=O)n1
Solution: Criterion met

Problem: API: query returns whether the compound falls strictly under 100 min in MS Human THalf. Query: O=c1c2cc(-c3ccc(OC(F)(F)F)cc3)ccc2nnn1CC1(COc2ncccn2)CC1
Solution: Criterion met

Problem: # check: MS Human THalf < 100 min for COc1ccnc(Cn2ncc3ccc(-c4ccc(OC(F)(F)F)cc4)cc3c2=O)n1
Solution: Criterion not met

Problem: In the record for O=C1c2cc(-c3ccc(C(F)(F)F)cc3)ccc2SCN1Cc1ccccc1Cl , is MS Human THalf less than 100 min?
Solution: Criterion met

Problem: For CCOC(=O)N1CCC(=O)C(n2nnc3ccc(-c4ccc(OC(F)(F)F)cc4)cc3c2=O)C1 (stereo not drawn) , is the recorded MS Human THalf below the cut-off of 100 min?
Solution: Criterion met

Problem: Please check: MS Human THalf for CC(C)(COc1ncccn1)Cn1nnc2ccc(-c3ccc(OC(F)(F)F)cc3)cc2c1=O , strictly under 100 min or not?
Solution: Criterion not met

Problem: Hello, is MS Human THalf of the following compound strictly smaller than 100 min? O=c1c2cc(-c3ccc(OC(F)(F)F)cc3)ccc2cnn1CCOc1ccccn1
Solution: Criterion not met

Problem: Given COc1cc(OC)nc(Cn2nnc3ccc(-c4ccc(OC(F)(F)F)cc4)cc3c2=O)n1 , is recorded MS Human THalf strictly lower than 100 min?
Solution: Criterion not met

Problem: Is 100 min strictly greater than the compound's reported MS Human THalf? compound: O=C(c1ncc[nH]1)N1CCc2ccc(-c3ccc(C(F)(F)F)cc3)cc2C1
Solution: Criterion not met

Problem: Strictly below 100 min in MS Human THalf? O=c1c2cc(-c3ccc(OC(F)(F)F)cc3)ccc2cnn1CCn1cccc1
Solution: Criterion met

Problem: Is the reported MS Human THalf for COc1ncc(-c2cnn(CCn3ncc4ccc(-c5ccc(OC(F)(F)F)cc5)cc4c3=O)c2)cn1 strictly below 100 min?
Solution: Criterion met

Problem: Is the reported MS Human THalf for Cc1ccn(CCn2ncc3ccc(-c4ccc(OC(F)(F)F)cc4)cc3c2=O)n1 strictly below 100 min?
Solution: Criterion met

Problem: Criterion: MS Human THalf strictly below 100 min. Is it met by O=c1c2cc(-c3ccc(OC(F)(F)F)cc3)ccc2nnn1Cc1ncc(Cl)cn1 ?
Solution: Criterion not met
